Tested on: isolated rabbit thoracic aorta preparations
Experiment: vasorelaxant activity in isolated rabbit thoracic aorta preparations precontracted with noradrenaline
Assay type: cell-based
Conditions: Oryctolagus cuniculus; concentration giving 50% reversal of NA (1 μM) contraction; aortic rings with functional endothelium; read-out: IC50 (μM) ± sem
Reported IC50 by item:

In the examples that follow, each entry is paired with its recorded IC50.
Exam item: Give recorded IC50. CC(C)(C)OC(=O)NCC(=O)OCc1ccc(CO[N+](=O)[O-])cc1
Marked response: 2.1 µM

Exam item: Give recorded IC50. CC(C)(C)OC(=O)N1CCCC1C(=O)OCCCCO[N+](=O)[O-] (centres unmarked)
Marked response: 1.9 µM

Exam item: Give recorded IC50. CC(C)(C)OC(=O)NC(CCc1ccccc1)C(=O)OCCOCCO[N+](=O)[O-] (centres unmarked)
Marked response: 8 µM

***
Exam item: Give recorded IC50. CC(C)(C)OC(=O)N[C@@H](Cc1ccccc1)C(=O)OCCCCO[N+](=O)[O-]
Marked response: 12.6 µM

----------
Reported IC50 by item:
Test system: isolated rabbit thoracic aorta preparations
Experiment: vasorelaxant activity in isolated rabbit thoracic aorta preparations precontracted with noradrenaline
Type: cell-based
Settings: Oryctolagus cuniculus; concentration giving 50% reversal of NA (1 μM) contraction; aortic rings with functional endothelium; read-out: IC50 (μM) ± sem
A number alone suffices; assume µM.

In the examples that follow, each entry is paired with its recorded IC50.
Exam item: Give recorded IC50. CC(C)(C)OC(=O)NCC(=O)NCCCCO[N+](=O)[O-]
Marked response: 10.2

Exam item: Give recorded IC50. CC(C)(C)OC(=O)NC(CCc1ccccc1)C(=O)Oc1cccc(CO[N+](=O)[O-])c1 (stereo not drawn)
Marked response: 5.2

Continue with the compound presented below.
Exam item: Give recorded IC50. CC(C)(C)OC(=O)N1CCCC1C(=O)OCCCO[N+](=O)[O-] (stereo not drawn)
Marked response: 1.2

----------
Test system: isolated rabbit thoracic aorta preparations
Experiment: vasorelaxant activity in isolated rabbit thoracic aorta preparations precontracted with noradrenaline
Assay type: cell-based
Settings: Oryctolagus cuniculus; concentration giving 50% reversal of NA (1 μM) contraction; aortic rings with functional endothelium; read-out: IC50 (μM) ± sem
Reported IC50 by item:
A number alone suffices; assume µM.

Exam item: Give recorded IC50. CC(C)(C)OC(=O)N[C@H](COC(=O)CCCO[N+](=O)[O-])Cc1ccccc1 [Compound 511]
Marked response: 9.5

Exam item: Give recorded IC50. CC(C)(C)OC(=O)NC(CCc1ccccc1)C(=O)OCc1ccc(CO[N+](=O)[O-])cc1 (stereo not shown) [Compound 13]
Marked response: 10.2

Exam item: Give recorded IC50. CC(C)(C)OC(=O)NCCOC(=O)CCCO[N+](=O)[O-] [Compound 508]
Marked response: 4.4

Continue with the molecule presented below.
Exam item: Give recorded IC50. CC(C)(C)OC(=O)N1CCCC1C(=O)OCc1ccc(CO[N+](=O)[O-])cc1 (stereo not shown) [Compound 7]
Marked response: 2.4
